Sourced from ChEMBL document CHEMBL5154941

biological target: Cytochrome P450 2C9 (Homo sapiens, UniProt P11712)
Sequence (P11712 whole entry): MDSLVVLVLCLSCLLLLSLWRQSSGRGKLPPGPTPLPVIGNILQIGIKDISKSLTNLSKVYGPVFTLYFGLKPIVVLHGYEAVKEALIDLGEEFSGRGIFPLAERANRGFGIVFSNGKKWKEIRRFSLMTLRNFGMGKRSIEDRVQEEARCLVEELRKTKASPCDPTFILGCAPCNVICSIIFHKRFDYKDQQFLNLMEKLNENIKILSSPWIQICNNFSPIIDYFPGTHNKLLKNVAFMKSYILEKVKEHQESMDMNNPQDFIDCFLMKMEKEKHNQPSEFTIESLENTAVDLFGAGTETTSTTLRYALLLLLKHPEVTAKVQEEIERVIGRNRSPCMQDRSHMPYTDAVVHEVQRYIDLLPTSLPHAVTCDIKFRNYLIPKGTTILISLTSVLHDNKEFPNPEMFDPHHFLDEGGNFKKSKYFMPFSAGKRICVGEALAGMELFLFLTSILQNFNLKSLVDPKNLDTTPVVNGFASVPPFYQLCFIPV
metricName: IC50 (µM)
Numbers only, in µM.

// IC50 lookup, key: "CC1=C(C(=O)O[C@H](C)c2ccccc2)C(c2ccc3c(cnn3C)c2)C(C(=O)O[C@H](C)c2ccccc2)=C(C)N1" 4.6

* * *

target: cGMP-specific 3',5'-cyclic phosphodiesterase (Homo sapiens, UniProt O76074)
metricName: IC50 (nM)
Answers are plain numbers, in nM.

// query IC50 value for entry "CC1=C(C(=O)O[C@H](C)c2ccccc2)C(c2ccc3c(cnn3C)c2)C(C(=O)O[C@H](C)c2ccccc2)=C(C)N1" 1810

* * *

test: Clearance in Sprague-Dawley rat at 5 mg/kg, iv; assay type: ADME, organism-based; details: in vivo
metricName: clearance
The reply must contain the numeric value and, after it, the unit.

Requested field: clearance. Item: "CC1=C(C(=O)O[C@H](C)c2ccccc2)C(c2ccc3c(cnn3C)c2)C(C(=O)O[C@H](C)c2ccccc2)=C(C)N1" 18.4 mL/min/kg
